# key: entry, value: residual activity
measurement-target: CSNK1E (human) (UniProt P49674)
Sequence (P49674 whole entry, looked up): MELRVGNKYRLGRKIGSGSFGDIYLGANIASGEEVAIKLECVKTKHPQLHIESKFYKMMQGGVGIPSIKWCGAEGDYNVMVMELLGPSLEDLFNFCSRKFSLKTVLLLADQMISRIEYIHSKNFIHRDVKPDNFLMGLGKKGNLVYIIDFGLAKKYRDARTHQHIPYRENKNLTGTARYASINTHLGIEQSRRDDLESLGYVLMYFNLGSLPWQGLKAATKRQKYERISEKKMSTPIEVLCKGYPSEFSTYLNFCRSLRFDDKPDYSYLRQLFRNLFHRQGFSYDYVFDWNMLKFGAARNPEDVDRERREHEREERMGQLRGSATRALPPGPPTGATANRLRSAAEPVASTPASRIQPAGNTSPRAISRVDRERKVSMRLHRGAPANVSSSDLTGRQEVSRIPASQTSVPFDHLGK
experiment-notes: radiometric filter-binding kinase assay, Kinase HotSpot
settings: compound 0.5 µM; ATP 10 µM
Please state the figure in %; there is no need to write the unit.

compound-string: N#Cc1c(NC(=O)c2cccc3ccccc23)sc2c1CCCC2
residual activity (%): 102

compound-string: O=c1[nH]c2ccccc2n1C1CCN(Cc2ccc(-c3nc4cc5[nH]cnc5cc4nc3-c3ccccc3)cc2)CC1
residual activity (%): 107

compound-string: N/C(=N\N=C/c1ccc(-c2cccc([N+](=O)[O-])c2)o1)N[N+](=O)[O-]
residual activity (%): 91

compound-string: FC(F)(F)c1ccc(/C=C/c2nc(COc3ccc(CCCCn4ccnn4)cc3)co2)cc1
residual activity (%): 95.5

compound-string: CCCCc1c(-c2ccc(O)cc2)[nH]c2nccnc12
residual activity (%): 102

Could you now consider this next compound?
### Prompt What residual activity value was documented for this compound, `Cc1cc(Nc2nc(-c3ccccc3)nc3ccccc23)n[nH]1` ?
### Response 97.4

====

# key: entry, value: residual activity
measurement-target: CDC42BPA (human)
experiment-notes: radiometric filter-binding kinase assay, Kinase HotSpot
settings: compound 0.5 µM; ATP 10 µM
Please state the figure in %; there is no need to write the unit.

### Prompt What residual activity value was documented for this compound, `N#C/C(=C1/Nc2ccccc2S1)c1ccnc(NCCc2cccnc2)n1` ?
### Response 99.6

### Prompt For `Cn1cc(/C=C2\C(=O)Nc3ccc(S(N)(=O)=O)cc32)c2ccccc21` then?
### Response 70.7

### Prompt For `O=c1[nH]c2ccccc2n1C1CCN(Cc2ccc(-c3nc4cc5[nH]cnc5cc4nc3-c3ccccc3)cc2)CC1` then?
### Response 105

### Prompt For `CCCCc1c(-c2ccc(O)cc2)[nH]c2nccnc12` then?
### Response 99.3

====

measurement-target: EPHB2 (human)
experiment-notes: radiometric filter-binding kinase assay, Kinase HotSpot
settings: compound 0.5 µM; ATP 10 µM
test-readout: residual activity (%)
Please state the figure in %; there is no need to write the unit.

Below: 9 molecules and their reported residual activity.
compound-string: COc1cccc(-c2cc(=O)c3ccccc3o2)c1N
residual activity (%): 88
//
compound-string: COc1cc2ncnc(Nc3ccc(O)c(Br)c3)c2cc1OC
residual activity (%): 66.1
//
compound-string: Cn1cc(/C=C2\C(=O)Nc3ccc(S(N)(=O)=O)cc32)c2ccccc21
residual activity (%): 84.8
//
compound-string: CCOc1cc2ncnc(Nc3cccc(Br)c3)c2cc1OCC
residual activity (%): 77
//
compound-string: O=c1c2ccccc2[nH]c(=S)n1CCN1CCC(=C(c2ccc(F)cc2)c2ccc(F)cc2)CC1
residual activity (%): 92.1
//
compound-string: N#Cc1c(NC(=O)c2cccc3ccccc23)sc2c1CCCC2
residual activity (%): 97.5
//
compound-string: N#CCCc1ccc2c(c1)-c1[nH]c3ccc([N+](=O)[O-])cc3c1CC(=O)N2
residual activity (%): 98.5
//
compound-string: FC(F)(F)c1ccc(/C=C/c2nc(COc3ccc(CCCCn4ccnn4)cc3)co2)cc1
residual activity (%): 98.3
//
compound-string: CCCCc1c(-c2ccc(O)cc2)[nH]c2nccnc12
residual activity (%): 92.3

### Prompt What residual activity value was documented for this molecule, `c1ccc(-c2cnc(Nc3ccc(OCCN4CCCC4)cc3)s2)cc1` ?
### Response 75.6

Source listed as the kinase profiling compilation of Christmann-Franck et al. (2016).
